These entries and their values trace back to ChEMBL document CHEMBL1201862.

- Tested on: 786-0
- test: NCI tumour cell line growth inhibition, 48 h
Active and inactive are the calls of the source. No stated cut-off is given here; in the data, active = GI50 up to about 1.1 µM and inactive = higher.
reported_endpoint: GI50

compound | value_reported
CC(C)(C)C(=O)ON1N=NC2C3CC(OCc4ccccc4)(OCc4ccccc4)C(O3)C21 (centres undefined) | 18.5 µM (inactive)

Parameter requested: GI50. Apply to each item below.
1. Nc1ncnc2c1ncn2C1CC(OC2CCCCO2)C(CO)O1 (centres undefined)
2. CC(C)NC(=O)OCc1c(COC(=O)NC(C)C)c(-c2ccc[n+](COC(=O)C(C)(C)C)c2)n2c1CCC2
3. C=C1C(=O)O[C@H]2C/C(C)=C/CC/C(C)=C/CC[C@@](C)(O)[C@@H](I)C[C@@H]12
4. Cc1cc(N)c2ccccc2[n+]1CCCCCCCCCCNc1cc(C)[n+](CCCCCCCCCC[n+]2c(C)cc(N)c3ccccc32)c2ccccc12
5. COc1cc(/C=C/c2csnn2)cc(OC)c1OC

> 100 µM (inactive)
40.7 µM (inactive)
3 µM (inactive)
0.547 µM (active)
> 100 µM (inactive)

Parameter requested: GI50. Apply to each item below.
1. CCOC(=O)c1cc(C2CCN(c3ccccc3)C2=O)c(C(=O)/C=C(/C)O)[nH]1 (centres undefined)
2. O=C(O)CCSCc1ccc(I)cc1

1. 54.5 µM (inactive)
2. > 100 µM (inactive)

Look up GI50: CCc1cc(Cc2cc(Cl)c(NC(=O)C(=O)C3NC(=O)NC3=O)c(CC)c2)cc(Cl)c1NC(=O)C(=O)C1NC(=O)NC1=O (centres undefined)
42.7 µM (inactive)
